# System: MALME-3M melanoma
# ASSAY_EXPLANATION: NCI-60 one-dose screen, 48 h (100 = growth as untreated, 0 = no growth, -100 = all killed)
# CONDITIONS: 10 µM unless noted
# Experimental: Cells are grown in 96 well plates and exposed to the test compound for 48 hours. Compounds are tested at a single concentration, which is 10^-5 M for most compounds. The reported endpoint is percent growth (GI% or GIPRCNT), where numbers from 0 - 100% represent growth inhibition, and numbers from -100% - 0 represent cell death. For example, a value of 40 represents 60% growth inhibition. A value of 0 means no net growth occurred over the course of the experiment. […]
This is part of a sample that, as a whole, favours compounds with a hit. Of some 83,000 tested, about 20% had one in any assay.
Parameter threshold = 70%. Response is criterion met when growth meets or exceeds it, else criterion not met.

Below, 5 molecules whose answers are already recorded.
| MOLECULE | GROUP |
| --- | --- |
| COc1cc(C2CC(c3cc(OC)c(OC)c(OC)c3)=NN2c2ccccc2)ccc1OCc1ccc(C)cc1 (stereo not given) | criterion met |
| CC(=O)Nc1cccc(Nc2nc(NCc3ccccc3)c3ccccc3n2)c1 | criterion not met |
| CC12CC[C@@H]3[C@]4(C)COC(c5cn[nH]c5-c5cccc(Cl)c5)O[C@@H]4CC[C@@]3(C)[C@@H]1CC(C1=CCOC1=O)O2 (stereo not given in full) | criterion not met |
| Cc1cccc(Nc2nc3ccccc3nc2/C=C/c2ccc(F)cc2)c1 | criterion met |
| OCNc1ccc(-n2cnc3cc(-c4ccc(O)cc4)ccc32)cc1C(F)(F)F | criterion not met |

Input: Could you tell me if the measured growth of C#CCOc1cc(N(CC)CC)ccc1C(C(=O)NC(C)(C)C)N(C(=O)C1CCc2cc(F)ccc2O1)c1ccccc1F (stereo not given) reaches 70% or more?
Output: criterion not met

Input: Check if growth >= 70% (inclusive). Item: `Cn1cc(-c2nc(N)nnc2-c2c[nH]c3ccc(F)cc23)c2cccnc21`
Output: criterion not met

Input: Does growth meet or surpass 70% for `O=C(c1ccccc1)c1ccc2nc(-c3ccc(F)cc3)[nH]c2c1` ?
Output: criterion met

Input: growth >= 70% for `O=C1CCCc2cc(OCC(=O)N3CCCCC3)ccc2N1` ?
Output: criterion met

Reference for the values: PubChem BioAssay (NCI)
